From: PubChem BioAssay

# methodDescription: small-molecule microarray binders of probe aEGFR, primary screen, biochemical, biotinylated probe, 635/667 nm fluorescence (AID 1097);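 further: probe is a biotinylated anti-EGFR antibody binding compounds printed on slides; score combines fluorescence near 667 nm and signal to noise of each spot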
# appliedConditions: higher = more signal
Tag: 1 (yes) if measured composite z-score is not below -0.04, 0 (no) if it is.

{"molecule": "CCCC[C@@H]1C[C@H]1[C@@H](NC(=O)c1ccccc1)c1ccc(Cl)cc1", "discreteLabel": "0 (no)"}
{"molecule": "C[C@@H]1ON(c2ccc(C(=O)OC(C)(C)C)cc2)[C@H](c2ccc(Br)cc2)[C@H]1C(=O)N1C(=O)OC[C@H]1Cc1ccccc1", "discreteLabel": "1 (yes)"}
{"molecule": "COCCOC(=O)N1C(=O)[C@@]2(c3cc(C#CC4(O)CCCCCC4)ccc31)[C@H](C(=O)N1CCCCCCC1)[C@H]1C(=O)O[C@H](c3ccccc3)[C@H](c3ccccc3)N1[C@@H]2c1ccc(OCCO)cc1", "discreteLabel": "1 (yes)"}
{"molecule": "NC(=O)N1C(=O)C2C(C1=O)C1C=C(c3ccc(CO)cc3)C2C(C2CC2)N1Cc1sc2ccccc2c1Cl (centres undefined)", "discreteLabel": "1 (yes)"}
{"molecule": "CN(C)CCCNC(=O)[C@@H]1c2ccccc2C(=O)N(Cc2ccc(OC(F)(F)F)cc2)[C@H]1c1ccc(CO)cc1", "discreteLabel": "0 (no)"}
{"molecule": "CCOC(=O)C1=CC[C@@H](c2ccccc2)N(S(=O)(=O)c2ccc(C)cc2)C1", "discreteLabel": "0 (no)"}
{"molecule": "COC(=O)[C@]1(CCS(=O)(=O)c2ccccc2)N=C(c2ccc(OCCCO)cc2)O[C@@H]1c1ccccc1CN=[N+]=[N-]", "discreteLabel": "0 (no)"}
{"molecule": "O=C1c2ccccc2[C@](Cc2ccccc2I)(C(=O)NCCN2CCOCC2)[C@H](c2ccc(CO)cc2)N1Cc1ccccc1", "discreteLabel": "1 (yes)"}
{"molecule": "CC(C)(C)OC(=O)CC[C@@]1(C(=O)O)N=C(c2ccc(OCCCO)cc2)O[C@@H]1c1ccccc1", "discreteLabel": "0 (no)"}
{"molecule": "C[C@]1(C(=O)O)c2ccccc2C(=O)N(Cc2ccccc2)[C@H]1c1ccc(CO)cc1", "discreteLabel": "0 (no)"}
{"molecule": "C=CC[C@H](OC(=O)Nc1ccc(OC)cc1)c1ccc(O)c2ccccc12", "discreteLabel": "0 (no)"}
{"molecule": "O=C1c2ccccc2[C@](Cc2ccccc2I)(C(=O)NCc2ccccc2)[C@H](c2ccc(CO)cc2)N1C1CCCCC1", "discreteLabel": "1 (yes)"}
{"molecule": "C=CCC(OC(C)=O)[C@@H]1[C@@H](N(Cc2cc3ccccc3o2)C(=O)Cc2ccc(F)cc2)c2cc(OCCCO)ccc2N1C(=O)c1ccc2ccccc2n1 (some centres undefined)", "discreteLabel": "0 (no)"}
{"molecule": "COc1cc(OC)c(C(O)C2C=CC3C(=O)N(c4ccccc4)C(=O)C3N2Nc2ccc(C#N)cc2)cc1Br (centres undefined)", "discreteLabel": "1 (yes)"}
{"molecule": "COc1ccc(C(O)C2C=CC3C(=O)N(c4ccccc4)C(=O)C3N2Nc2ccc(C#N)cc2)c2ccccc12 (centres undefined)", "discreteLabel": "0 (no)"}
{"molecule": "NC(=O)NCC#Cc1ccc2c(c1)[C@]1(C(=O)N2)[C@H](c2ccc(O)cc2)N2[C@H](c3ccccc3)[C@H](c3ccccc3)OC(=O)[C@H]2[C@@H]1C(=O)Nc1nc2ccccc2s1", "discreteLabel": "0 (no)"}
{"molecule": "O=C1OCC=C[C@H]2OC34C=CCN(c5ccc(Cl)cc5)C(=O)[C@H]3N(CCCCCO)C(=O)[C@@H]4[C@@H]12 (some centres undefined)", "discreteLabel": "0 (no)"}
{"molecule": "CCOC(=O)[C@H]1C/C=C/C[C@H](C(=O)OCC)C(=O)O[C@H]2[C@@H](OC)O[C@H](CO)[C@@H](OC(=O)Nc3ccc(OC)cc3)[C@@H]2OC1=O", "discreteLabel": "0 (no)"}
{"molecule": "C=CC[C@@]1(C(=O)O)N=C(c2ccc(OCCCO)cc2)O[C@@H]1c1ccccc1", "discreteLabel": "0 (no)"}
{"molecule": "O=C1O[C@@H](c2ccccc2)[C@@H](c2ccccc2)N2[C@@H](c3ccccc3OCCO)[C@]3(C(=O)Nc4ccccc43)[C@@H](C(=O)NC[C@H](O)c3ccccc3)[C@H]12", "discreteLabel": "0 (no)"}
{"molecule": "C=CCNC(=O)[C@@H]1[C@H]2C(=O)O[C@H](c3ccccc3)[C@H](c3ccccc3)N2[C@H](c2ccc(OCCO)cc2)[C@@]12C(=O)N(C(=O)OCCOC)c1ccc(C#CC3=CCCCC3)cc12", "discreteLabel": "1 (yes)"}
{"molecule": "NCCCCCCNC(=O)[C@@H]1C[C@@H]2C(=O)N3CCC[C@H]3C(=O)N2[C@@H]1c1ccc(O)cc1", "discreteLabel": "0 (no)"}
{"molecule": "COCC(=C=CC[C@H](O)c1cccc(OCCO)c1)C[C@H](O)c1ccccn1", "discreteLabel": "1 (yes)"}
{"molecule": "CN1C(=O)C2C=CC(C(O)C3CCCCC3)N(N3CCCCC3)C2C1=O (centres undefined)", "discreteLabel": "1 (yes)"}
{"molecule": "COC(=O)C1(Cc2ccccc2)C=C2C(=C(c3ccccc3)C(=O)C2C)CN1 (centres undefined)", "discreteLabel": "1 (yes)"}
{"molecule": "C=CCOC(=O)[C@H]1[C@@H]2C(=O)O[C@@H](c3ccccc3)[C@@H](c3ccccc3)N2[C@@H](c2ccc(OCCOC(=O)[C@H]3C[C@H]4C(=O)N[C@@H](CCCC[N+](C)(C)C)C(=O)N4[C@H]3c3cccc(OCCO)c3)cc2)[C@]12C(=O)Nc1ccc(I)cc12", "discreteLabel": "1 (yes)"}
{"molecule": "COc1ccc(NN2C(C(O)c3ccccn3)C=CC3C(=O)N(C4CCCCC4)C(=O)C32)cc1 (centres undefined)", "discreteLabel": "1 (yes)"}
{"molecule": "C=CCNC(=O)[C@@H]1[C@H]2C(=O)O[C@H](c3ccccc3)[C@H](c3ccccc3)N2[C@H](c2ccccc2OCCO)[C@@]12C(=O)N(C(=O)OCCOC)c1ccc(C#CC3=CCCCC3)cc12", "discreteLabel": "0 (no)"}
{"molecule": "COC(=O)C(CC#Cc1ccc2c(c1)[C@]1(C(=O)N2)[C@H](C(=O)O)[C@H]2C(=O)O[C@H](c3ccccc3)[C@H](c3ccccc3)N2[C@@H]1c1ccccc1OCCO)C(=O)OC", "discreteLabel": "1 (yes)"}
